Kindly supply the reported pEC50 values for the records listed here.
Target: T1, human TREM2 on the cell surface (human, UniProt Q9NZC2 19-230)
T1 construct: also called surface TREM2; TREM2 expressed in HEK293-H6 cells
T1 sequence: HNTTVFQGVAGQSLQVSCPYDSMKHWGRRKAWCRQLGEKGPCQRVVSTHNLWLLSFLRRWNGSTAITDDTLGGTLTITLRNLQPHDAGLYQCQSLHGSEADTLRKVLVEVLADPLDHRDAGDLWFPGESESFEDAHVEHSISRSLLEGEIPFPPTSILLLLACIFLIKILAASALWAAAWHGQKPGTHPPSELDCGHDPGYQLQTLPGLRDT
Assay: flow cytometry, dose-titrated binding to HEK293-H6 cells
Numbers only, as −log10 of the molar value.

Consider the following illustrative entries.
Hello, please tell me recorded pEC50 for this one: CL0020123-5 (antibody, V domains shown, Humanized variant of CL0020123 (hVH QGES/2 m, Vk graft); also called Clone CL0020123-5) VH: QVQLVQSGAEVKKPGASVKVSCKASGFSIEDFYIHWVRQAPGQGLEWMGWIDPEQGESKYAPKFQGRATITADTSTSTAYMELSSLRSEDTAVYYCHADHGNYGSTMDYWGQGTLVTVSS VL: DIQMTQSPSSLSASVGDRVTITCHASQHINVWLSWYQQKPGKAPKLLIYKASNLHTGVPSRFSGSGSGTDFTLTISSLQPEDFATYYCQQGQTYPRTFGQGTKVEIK
9.43

Report measured pEC50; entry is CL0020188-2 (antibody, V domains shown, Humanized variant of CL0020188 (hVH NG/3 m, hVL NG/graft); also called Clone CL0020188-2) VH: EVQLVESGGGLVQPGGSLRLSCAGSGFTFTDFYMSWVRQAPGKGPEWLSVIRNKANGYTAGYNPSVKGRFTISRDNSKNTLYLQMNSLRAEDTAVYYCARLTYGFDYWGQGTLVTVSS VL: DIVMTQTPLSLPVTPGEPASISCQSSKSLLHSNGKTYLNWYLQKPGQSPQLLIYWMSTRASGVPDRFSGSGSGTDFTLKISRVEAEDVGVYYCQQFLEYPFTFGQGTKVEIK
9.59

Write down pEC50 measured for item CL0020123-7 (antibody, V domains shown, Humanized variant of CL0020123 (hVH NGES/1 m, Vk graft); also called Clone CL0020123-7) VH: QVQLVQSGAEVKKPGASVKVSCKASGFSIEDFYIHWVRQAPGQGLEWMGWIDPENGESKYAPKFQGRVTITADTSTSTAYMELSSLRSEDTAVYYCHADHGNYGSTMDYWGQGTLVTVSS VL: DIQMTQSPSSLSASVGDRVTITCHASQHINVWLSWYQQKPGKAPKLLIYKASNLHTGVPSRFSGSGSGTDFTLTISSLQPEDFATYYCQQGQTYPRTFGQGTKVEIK
9.72

Output pEC50 of CL0020123 (antibody, V domains shown, also called Clone CL0020123) VH: EVQLQQSGAELVRSGASVKLSCTASGFSIEDFYIHWVKQRPEQGLEWIGWIDPENGDSKYAPKFQGKATMTADTSSNTAYLHLSSLTSEDTAVYYCHADHGNYGSTMDYWGQGTSVTVSS VL: DIQMNQSPSSLSASLGDTVTITCHASQHINVWLSWYQQKPGDHPKLLIYKASNLHTGVPSRFSGSGSGTGFTLTISSLQPEDIATYYCQQGQTYPRTFGGGTKLEIK
9.59

Below: the item to evaluate.
Return value of pEC50 for input CL0020188-1 (antibody, V domains shown, also called Clone CL0020188-1) VH: EVQLVESGGGLVQPGGSLRLSCAASGFTFTDFYMSWVRQAPGKGLEWVSVIRNKANGYTAGYNPSVKGRFTISRDNSKNTLYLQMNSLRAEDTAVYYCARLTYGFDYWGQGTLVTVSS VL: DIVMTQTPLSLPVTPGEPASISCQSSKSLLHSNGKTYLNWYLQKPGQSPQLLIYWMSTRASGVPDRFSGSGSGTDFTLKISRVEAEDVGVYYCQQFLEYPFTFGQGTKVEIK , no commentary.
9.38
